# SUBJECT_OF_TEST: dopamine D2 receptors (Rattus norvegicus, UniProt P61169)
# Construct: guinea pig by b443
# Sequence (P61169 whole entry): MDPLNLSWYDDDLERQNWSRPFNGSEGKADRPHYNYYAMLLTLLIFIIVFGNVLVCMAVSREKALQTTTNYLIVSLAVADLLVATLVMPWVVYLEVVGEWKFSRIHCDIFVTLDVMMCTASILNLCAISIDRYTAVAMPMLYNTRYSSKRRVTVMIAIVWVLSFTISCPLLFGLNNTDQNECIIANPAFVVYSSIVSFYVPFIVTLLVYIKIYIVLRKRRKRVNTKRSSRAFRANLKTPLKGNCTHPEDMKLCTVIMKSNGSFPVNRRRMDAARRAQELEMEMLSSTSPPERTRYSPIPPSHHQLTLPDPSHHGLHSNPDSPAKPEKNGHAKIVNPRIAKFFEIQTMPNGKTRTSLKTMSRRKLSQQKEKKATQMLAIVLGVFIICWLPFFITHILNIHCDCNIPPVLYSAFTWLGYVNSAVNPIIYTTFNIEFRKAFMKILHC
# TEST_DETAILS: Dopamine D2 binding test with [3H]spiroperidol (Table 1.A)
# Protocol: Tests of binding to phencyclidine and dopamine D2 receptors were carried out to study the possible undesirable interactions of the compounds of the invention with these receptors. […] The technique consists in incubating solutions of suitable concentrations of the test products with standard samples of membranes loaded with the labeled ligand, and then in determining the radioactivity of the solution after filtration. […]
Structures can show the parent of a compound that is named as a salt.
OBSERVED_PROPERTY: pIC50
Give bare numbers, as −log10 of the molar value.

1. CN(CCC1CCc2ccccc2C1=O)CC1CCC1 (stereo not drawn) = 5.93

# value of pIC50, dopamine D2 receptors (Rattus norvegicus, UniProt P61169), item CN(CCC1CC1)CCC1CCc2ccccc2C1=O (stereo not drawn) [EXAMPLE 4, Hydrochloride] = 5.72

###

# SUBJECT_OF_TEST: sigma receptors
# TEST_DETAILS: Sigma binding test with [3H]-DTG (Table 1.A)
# EXPERIMENTAL_PARAMETERS: guinea pig
Counter-ions that a name gives are not always drawn.
OBSERVED_PROPERTY: IC50 (nM)
Answers are plain numbers, in nM.

1. CN(CCC1CC1)CCC1CCc2ccccc2C1=O (centres unmarked) [EXAMPLE 4, Hydrochloride] = 56

Input CN(CCC1CCc2ccccc2C1=O)CC1CC1 (centres unmarked) [EXAMPLE 2, Hydrochloride] . Output IC50: 52

###

# SUBJECT_OF_TEST: phencyclidine (PCP) receptors
# TEST_DETAILS: PCP receptor binding test with [3H]-TCP (Table 1.A)
# EXPERIMENTAL_PARAMETERS: guinea pig
Where a name gives a salt, the structure may show the parent alone.
OBSERVED_PROPERTY: IC50

Some compounds with recorded IC50:
1) CN(CCC1CC1)CCC1CCc2ccccc2C1=O (stereo not drawn) [EXAMPLE 4, Hydrochloride] = > 10 µM
2) CN(CCC1CCc2ccccc2C1=O)CC1CC1 (stereo not drawn) [EXAMPLE 2, Hydrochloride] = > 10 µM

Input CN(CCC1CCc2ccccc2C1=O)CC1CCC1 (stereo not drawn) . Output IC50: > 10 µM

###

# SUBJECT_OF_TEST: sigma receptors (Rattus norvegicus, UniProt Q9R0C9)
# Construct: (SKF 10,047/rat brain membranes); from tissue; host or cells: rat brain membranes
# Sequence (Q9R0C9 whole entry): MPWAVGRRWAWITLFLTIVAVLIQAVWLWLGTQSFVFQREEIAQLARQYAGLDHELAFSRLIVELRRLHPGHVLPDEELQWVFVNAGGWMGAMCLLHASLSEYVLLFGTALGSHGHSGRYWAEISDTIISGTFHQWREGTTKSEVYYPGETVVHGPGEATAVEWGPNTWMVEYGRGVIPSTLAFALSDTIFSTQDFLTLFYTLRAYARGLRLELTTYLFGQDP
# TEST_DETAILS: Sigma binding, SKF 10,047/rat brain membranes (Table 1.B)
# EXPERIMENTAL_PARAMETERS: rat brain membranes
# Protocol: Tests of binding to phencyclidine and dopamine D2 receptors were carried out to study the possible undesirable interactions of the compounds of the invention with these receptors. […] The technique consists in incubating solutions of suitable concentrations of the test products with standard samples of membranes loaded with the labeled ligand, and then in determining the radioactivity of the solution after filtration. […]
Where a name gives a salt, the structure may show the parent alone.
OBSERVED_PROPERTY: IC50 (nM)
One number for each entry, in nM.

Some compounds with recorded IC50:
1. CN(CCC1CCc2ccccc2C1=O)CC1CCC1 (centres unmarked) [EXAMPLE 3] = 11.1
2. CN(CCC1CCc2ccccc2C1=O)CC1CC1 (centres unmarked) [EXAMPLE 2, Hydrochloride] = 19.4
3. CN(CCC1CCCc2ccccc2C1=O)CC1CCCCC1 (centres unmarked) [EXAMPLE 11, Hydrochloride] = 6.6
4. CN(CCC1COc2ccc(F)cc2C1=O)CC1CCCCC1 (centres unmarked) [EXAMPLE 16, Hydrochloride] = 6.2
5. COc1ccc2c(c1)CCC(CCN(C)CC1CCCCC1)C2=O (centres unmarked) [EXAMPLE 6, Hydrochloride] = 8
6. C=CCN(C)CCC1CCc2ccccc2C1=O (centres unmarked) [EXAMPLE 17, Hydrochloride] = 13.3
7. CN(CCC1Cc2ccccc2C1=O)CC1CC1 (centres unmarked) [EXAMPLE 1, Hydrochloride] = 10.7
8. CN(CCC1CCc2ccccc2C1=O)CC1CCCCC1 (centres unmarked) [EXAMPLE 5, Hydrochloride] = 8.2

Could you report IC50 for every entry in the following list?
1. CN(CCC1CCCc2ccccc2C1=O)CC1CC1 (centres unmarked) [EXAMPLE 10, Hydrochloride]
2. CCCN(CCC1CCc2ccccc2C1=O)CC1CC1 (centres unmarked) [EXAMPLE 9]
3. CN(CCC1CC1)CCC1CCc2ccccc2C1=O (centres unmarked) [EXAMPLE 4, Hydrochloride]

1: 5.7; 2: 10.4; 3: 10.6
